test: in vitro; conditions: human, liver microsomes
Measured quantity: half-life at 5 µM (min)

>>> result_number("CC(C)CC[C@@H]1CC(O)=C(C2=NS(=O)(=O)c3cc(NS(C)(=O)=O)ccc3N2)C(=O)N1Cc1ccc(F)cc1")
7.6

(I) CCC(CC)[C@@H]1CC(O)=C(C2=NS(=O)(=O)c3cc(NS(C)(=O)=O)ccc3N2)C(=O)N1Cc1ccc(F)cc1
(II) CC(C)CC[C@H]1CN(Cc2ccc(F)cc2)C(=O)C(C2=NS(=O)(=O)c3cc(NS(C)(=O)=O)ccc3N2)=C1O
Could you tell me which of these two has the smaller half-life at 5 µM figure? First: I Second: II Please identify the chosen entry by its label.
II
